# Measurement Description: Selectivity index, ratio of IC50 for human MCF10A cells to IC50 for human SK-BR-3 cells
# Format: toxicity
# Condition: MCF10A cells versus SK-BR-3 cells, read-out: Ratio IC50
Measurement Type: selectivity ratio

{"columns": ["Record Smiles", "Measurement Type", "Observed"],
 "data": [
  ["CCNC(=O)O[C@@H]1C=C[C@]2(O[C@H]([C@@H](CC)C(=O)[C@@H](C)[C@@H](O)[C@H](C)[C@@H]3O[C@@H]([C@@H](CC)C(=O)NCCc4ccc(F)cc4)CC[C@@H]3C)[C@@H](C)C[C@H]2C)O[C@@]12CC[C@@](C)([C@H]1CC[C@](O)(CC)[C@H](C)O1)O2", "selectivity ratio", 13],
  ["CC[C@@H](C(=O)[C@@H](C)[C@@H](O)[C@H](C)[C@@H]1O[C@@H]([C@@H](CC)C(=O)NCCc2ccc(F)cc2)CC[C@@H]1C)[C@H]1O[C@]2(C=C[C@@H](OC(C)=O)[C@]3(CC[C@@](C)([C@H]4CC[C@](O)(CC)[C@H](C)O4)O3)O2)[C@H](C)C[C@@H]1C", "selectivity ratio", 11],
  ["C#CCNC(=O)[C@H](CC)[C@H]1CC[C@H](C)[C@H]([C@@H](C)[C@H](O)[C@H](C)C(=O)[C@H](CC)[C@H]2O[C@]3(C=C[C@@H](OC(=O)NCC)[C@]4(CC[C@@](C)([C@H]5CC[C@](O)(CC)[C@H](C)O5)O4)O3)[C@H](C)C[C@@H]2C)O1", "selectivity ratio", 11]
]}

For the next question, use this molecule.
Challenge: Tell me the measured selectivity ratio of `C#CCNC(=O)[C@H](CC)[C@H]1CC[C@H](C)[C@H]([C@@H](C)[C@H](O)[C@H](C)C(=O)[C@H](CC)[C@H]2O[C@]3(C=C[C@@H](O)[C@]4(CC[C@@](C)([C@H]5CC[C@](O)(CC)[C@H](C)O5)O4)O3)[C@H](C)C[C@@H]2C)O1` , please.
Response given: 2

Values were extracted from ChEMBL document CHEMBL4270561.
